Where do these numbers come from? They come from paper PMC3131532.

STUDY_SYSTEM: hSENP2 (Homo sapiens, UniProt Q9HC62)
Sequence (Q9HC62 whole entry): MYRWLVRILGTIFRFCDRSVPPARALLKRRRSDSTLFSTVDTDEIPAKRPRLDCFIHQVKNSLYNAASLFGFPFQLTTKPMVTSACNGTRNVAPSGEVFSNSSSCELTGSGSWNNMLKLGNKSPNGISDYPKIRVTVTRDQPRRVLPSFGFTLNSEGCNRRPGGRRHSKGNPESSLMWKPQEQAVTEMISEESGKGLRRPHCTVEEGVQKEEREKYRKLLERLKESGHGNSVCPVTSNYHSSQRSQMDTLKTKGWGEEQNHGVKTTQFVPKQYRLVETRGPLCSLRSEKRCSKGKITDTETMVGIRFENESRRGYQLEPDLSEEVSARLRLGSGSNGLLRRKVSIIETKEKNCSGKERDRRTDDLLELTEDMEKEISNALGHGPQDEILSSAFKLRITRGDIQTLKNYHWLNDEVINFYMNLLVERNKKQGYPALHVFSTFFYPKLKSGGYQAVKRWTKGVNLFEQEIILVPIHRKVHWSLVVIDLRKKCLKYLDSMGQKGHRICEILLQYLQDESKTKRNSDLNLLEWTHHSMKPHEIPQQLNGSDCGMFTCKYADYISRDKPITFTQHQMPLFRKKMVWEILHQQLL
MEASUREMENT_KIND: IC50 (µM)
State just the number; it will be interpreted in µM.

Supply recorded IC50 for O=C(O)c1cccc(C(=O)NCc2ccc(C(=O)NNC(=O)[C@H]3O[C@@H]3C(=O)N(Cc3cccc4ccccc34)Cc3cccc4ccccc34)cc2)c1 [VEA-260] here.
3.7

----------
STUDY_SYSTEM: hSENP1 (Homo sapiens)
Sequence (Q9P0U3 419-644 limits assumed): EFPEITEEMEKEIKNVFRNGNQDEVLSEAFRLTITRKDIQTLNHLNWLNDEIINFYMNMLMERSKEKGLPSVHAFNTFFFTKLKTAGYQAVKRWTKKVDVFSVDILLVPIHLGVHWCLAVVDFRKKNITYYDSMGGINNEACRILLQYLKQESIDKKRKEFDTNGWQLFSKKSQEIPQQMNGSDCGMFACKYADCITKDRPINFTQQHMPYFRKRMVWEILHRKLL
MEASUREMENT_KIND: pIC50
FYI, pIC50 means -log10 of a concentration in mol per litre.

Tell me its pIC50 on hSENP1 (Homo sapiens): O=C(O)c1cccc(C(=O)NCc2ccc(C(=O)NNC(=O)[C@H]3O[C@@H]3C(=O)N(Cc3cccc4ccccc34)Cc3cccc4ccccc34)cc2)c1 [VEA-260]
5.15

----------
STUDY_SYSTEM: UCH-L3 (Homo sapiens)
Sequence (P15374 whole entry): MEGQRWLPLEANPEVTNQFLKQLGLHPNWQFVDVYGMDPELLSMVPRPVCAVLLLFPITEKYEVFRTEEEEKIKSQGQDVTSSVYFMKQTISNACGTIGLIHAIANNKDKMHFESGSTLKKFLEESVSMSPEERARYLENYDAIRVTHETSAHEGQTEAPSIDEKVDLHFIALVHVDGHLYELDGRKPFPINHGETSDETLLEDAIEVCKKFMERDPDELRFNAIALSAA
pIC50: −log10 of the molar value.
MEASUREMENT_KIND: pIC50

Look up and report measured pIC50 for this entry: O=C(O)c1cccc(C(=O)NCc2ccc(C(=O)NNC(=O)[C@H]3O[C@@H]3C(=O)N(Cc3cccc4ccccc34)Cc3cccc4ccccc34)cc2)c1 [VEA-260]
~4.00

----------
STUDY_SYSTEM: hSENP8 (deNEDDylase) (Homo sapiens)
Sequence (Q96LD8 1-212): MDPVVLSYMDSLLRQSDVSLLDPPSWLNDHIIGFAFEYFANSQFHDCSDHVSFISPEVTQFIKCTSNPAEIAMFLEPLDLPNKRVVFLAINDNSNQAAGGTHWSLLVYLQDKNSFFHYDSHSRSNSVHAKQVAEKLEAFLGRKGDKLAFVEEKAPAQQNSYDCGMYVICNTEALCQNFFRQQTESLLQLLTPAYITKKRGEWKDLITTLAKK
MEASUREMENT_KIND: IC50 (µM)
Give the value, in units of µM, as a plain number.

Please give measured IC50 of the following entry: O=C(O)c1cccc(C(=O)NCc2ccc(C(=O)NNC(=O)[C@H]3O[C@@H]3C(=O)N(Cc3cccc4ccccc34)Cc3cccc4ccccc34)cc2)c1 [VEA-260]
9.1
